Cited source for all entries: patent US11279683B2

System: H1N1 (influenza A/New Caledonia/20/99)
Assay: microbe, parasite or virus in culture
Format: cell-based
Details: Influenza A virus, H1N1, A549, 48 h
So basically, if IC50 comes in under 20 µM it's fulfilled, and if it's 20 µM or more it's not fulfilled.

Below are worked cases with known answers.
CN(C(=O)c1c(NC(=O)C2CCCCC2C(=O)O)sc2c1CCC2)c1ccc(Cl)cc1 (centres unmarked) ... not fulfilled
O=C(Nc1ccc(Cl)cc1)c1c(NC(=O)C2CCCCC2C(=O)O)sc2cscc12 (centres unmarked) ... fulfilled
O=C(Nc1ccc(C(F)(F)F)cc1)c1c(NC(=O)C2CCCCC2C(=O)O)sc2c1CCC2 (centres unmarked) ... fulfilled
O=C(Nc1ccc(Cl)cc1)c1c(NC(=O)C2CCCCC2C(=O)O)sc2c1CCCC2 (centres unmarked) ... fulfilled
CCc1c(C)sc(NC(=O)C2CCCCC2C(=O)O)c1C(=O)Nc1cccc(Cl)c1 (centres unmarked) ... fulfilled
CCc1c(C)sc(NC(=O)C2CCCCC2C(=O)O)c1C(=O)Nc1ccccc1 (centres unmarked) ... not fulfilled

q: # TODO verify IC50 < 20 µM strictly for this compound: NS(=O)(=O)N1CCCCC1C(=O)Nc1sc2c(c1C(=O)Nc1ccc(Cl)cc1)CCC2 (centres unmarked)
a: fulfilled

q: Hello, is IC50 of the following compound strictly smaller than 20 µM? CC(=O)N1CCC1C(=O)Nc1sc2c(c1C(=O)Nc1ccc(Cl)cc1)CCC2 (centres unmarked)
a: not fulfilled
